Entries annotated with measured Kd
Biological target: T1, EsCas13d, nuclease-dead (Eubacterium siraeum, UniProt B0MS50, R295A;H300A;R849A;H854A)
T1 sequence: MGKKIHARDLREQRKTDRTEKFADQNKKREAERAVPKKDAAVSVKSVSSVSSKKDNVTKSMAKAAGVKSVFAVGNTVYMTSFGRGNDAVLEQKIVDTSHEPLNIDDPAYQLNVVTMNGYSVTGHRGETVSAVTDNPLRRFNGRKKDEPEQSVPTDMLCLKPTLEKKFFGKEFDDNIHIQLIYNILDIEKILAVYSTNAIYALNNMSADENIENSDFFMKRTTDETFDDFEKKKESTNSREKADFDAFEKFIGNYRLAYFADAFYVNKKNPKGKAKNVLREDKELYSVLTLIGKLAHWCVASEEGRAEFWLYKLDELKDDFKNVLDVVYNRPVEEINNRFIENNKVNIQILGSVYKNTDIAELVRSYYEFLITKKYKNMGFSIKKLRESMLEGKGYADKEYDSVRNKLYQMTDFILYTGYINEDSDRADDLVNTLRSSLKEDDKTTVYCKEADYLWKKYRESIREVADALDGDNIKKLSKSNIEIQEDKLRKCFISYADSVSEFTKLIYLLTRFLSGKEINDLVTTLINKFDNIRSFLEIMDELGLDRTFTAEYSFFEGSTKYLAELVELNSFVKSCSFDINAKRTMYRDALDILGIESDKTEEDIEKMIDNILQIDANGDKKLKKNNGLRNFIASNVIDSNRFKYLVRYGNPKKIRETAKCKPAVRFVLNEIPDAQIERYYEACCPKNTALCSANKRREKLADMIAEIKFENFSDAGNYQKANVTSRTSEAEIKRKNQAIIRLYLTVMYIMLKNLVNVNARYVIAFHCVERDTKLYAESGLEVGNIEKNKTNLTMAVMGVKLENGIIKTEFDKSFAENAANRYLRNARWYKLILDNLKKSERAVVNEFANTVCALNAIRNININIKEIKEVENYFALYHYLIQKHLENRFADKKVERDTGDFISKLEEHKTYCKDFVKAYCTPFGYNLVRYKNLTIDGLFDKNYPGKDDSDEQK
Experiment: crRNA (strand 1, pre-loaded); Mg2+; 40 mM Tris-HCl pH 7.5, 150 mM NaCl, 6 mM MgCl2, 1 mM DTT, 0.1% Tween-20, 0.2 mg/ml BSA; 25 C; 10 min per concentration, then washed
Details: tags: His6-TwinStrep-SUMO cleaved; N-terminal SNAP kept (SNAP-Surface 488); label: 3' end held by stalled T7 RNA polymerase

Binder: target 1 G5C,U10A (mixed) RNA 1: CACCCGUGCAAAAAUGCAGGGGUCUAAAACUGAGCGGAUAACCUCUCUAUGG RNA 2: GGGAAUGGAUCCACAUCUACGAAUUCGUACCAUAGAGAGGUAAUCCCCUCACCGAGAUCGGAAGAGCACACGU
Unit: nM
Kd: 11.8

Binder: target 2 MT 5'PFS UUA 3'PFS AUU (mixed) RNA 1: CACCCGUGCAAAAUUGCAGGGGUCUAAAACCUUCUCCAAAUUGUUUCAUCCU RNA 2: GGGAAUGGAUCCACAUCUACGAAUUCUUAAGGAUGAAACAAUUUGGAGAAGAUUAGAUCGGAAGAGCACACGU
Unit: nM
Kd: 18.5

Binder: target 1 insA 3' of 21,insG 3' of 20 (mixed) RNA 1: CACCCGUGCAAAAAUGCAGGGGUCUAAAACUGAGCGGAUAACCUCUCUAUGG RNA 2: GGGAAUGGAUCCACAUCUACGAAUUCGUACCAAGUAGAGAGGUUAUCCGCUCACCGAGAUCGGAAGAGCACACGU
Unit: nM
Kd: 24

Binder: target 1 MT 5'PFS GCC 3'PFS UCG (mixed) RNA 1: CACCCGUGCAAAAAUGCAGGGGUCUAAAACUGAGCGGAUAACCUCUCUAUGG RNA 2: GGGAAUGGAUCCACAUCUACGAAUUCGCCCCAUAGAGAGGUUAUCCGCUCAUCGAGAUCGGAAGAGCACACGU
Unit: nM
Kd: 15.3

Binder: target 3 insG 3' of 6,insG 3' of 2 (mixed) RNA 1: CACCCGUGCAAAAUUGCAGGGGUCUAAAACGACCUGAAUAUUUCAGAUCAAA RNA 2: GGGAAUGGAUCCACAUCUACGAAUUCGUUUUUGAUCUGAAAUAUUCGAGGUGCUGCAGAUCGGAAGAGCACACGU
Unit: nM
Kd: 16.3

Binder: target 2 MT 5'PFS GGG 3'PFS AGG (mixed) RNA 1: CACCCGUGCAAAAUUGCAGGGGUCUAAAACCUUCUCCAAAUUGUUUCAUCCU RNA 2: GGGAAUGGAUCCACAUCUACGAAUUCGGGAGGAUGAAACAAUUUGGAGAAGAGGAGAUCGGAAGAGCACACGU
Unit: nM
Kd: 7.5

Binder: target 1 G13C,G15A (mixed) RNA 1: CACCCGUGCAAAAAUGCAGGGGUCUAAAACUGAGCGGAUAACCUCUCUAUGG RNA 2: GGGAAUGGAUCCACAUCUACGAAUUCGUACCAUAGAAACGUUAUCCGCUCACCGAGAUCGGAAGAGCACACGU
Unit: nM
Kd: 46

Binder: target 1 MT 5'PFS GCU 3'PFS CUC (mixed) RNA 1: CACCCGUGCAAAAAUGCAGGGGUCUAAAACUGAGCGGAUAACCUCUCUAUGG RNA 2: GGGAAUGGAUCCACAUCUACGAAUUCGCUCCAUAGAGAGGUUAUCCGCUCACUCAGAUCGGAAGAGCACACGU
Unit: nM
Kd: 44

Binder: target 1 insU 3' of 2 (mixed) RNA 1: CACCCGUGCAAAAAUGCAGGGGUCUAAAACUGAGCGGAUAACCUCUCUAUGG RNA 2: GGGAAUGGAUCCACAUCUACGAAUUCGUACCAUAGAGAGGUUAUCCGCUCUACCGAGAUCGGAAGAGCACACGU
Unit: nM
Kd: 9.7

Binder: target 1 G5A,C6A (mixed) RNA 1: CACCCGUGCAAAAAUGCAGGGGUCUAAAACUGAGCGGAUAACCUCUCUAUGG RNA 2: GGGAAUGGAUCCACAUCUACGAAUUCGUACCAUAGAGAGGUUAUCAACUCACCGAGAUCGGAAGAGCACACGU
Unit: nM
Kd: 5.75

Binder: target 1 C6A,U19G (mixed) RNA 1: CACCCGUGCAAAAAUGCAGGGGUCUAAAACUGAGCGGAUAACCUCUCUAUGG RNA 2: GGGAAUGGAUCCACAUCUACGAAUUCGUACCAGAGAGAGGUUAUCAGCUCACCGAGAUCGGAAGAGCACACGU
Unit: nM
Kd: 46

Binder: target 3 complement block 6-8 (mixed) RNA 1: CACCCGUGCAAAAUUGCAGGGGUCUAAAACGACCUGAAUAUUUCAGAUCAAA RNA 2: GGGAAUGGAUCCACAUCUACGAAUUCGUUUUUGAUCUGAAAUAAAGAGGUCUGCAGAUCGGAAGAGCACACGU
Unit: nM
Kd: 102

Binder: target 2 MT 5'PFS ACA 3'PFS AGA (mixed) RNA 1: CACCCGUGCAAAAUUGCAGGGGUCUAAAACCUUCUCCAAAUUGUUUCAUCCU RNA 2: GGGAAUGGAUCCACAUCUACGAAUUCACAAGGAUGAAACAAUUUGGAGAAGAGAAGAUCGGAAGAGCACACGU
Unit: nM
Kd: 3.6

Binder: target 2 MT 5'PFS AGC 3'PFS AGG (mixed) RNA 1: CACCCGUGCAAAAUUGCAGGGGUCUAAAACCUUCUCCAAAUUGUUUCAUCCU RNA 2: GGGAAUGGAUCCACAUCUACGAAUUCAGCAGGAUGAAACAAUUUGGAGAAGAGGAGAUCGGAAGAGCACACGU
Unit: nM
Kd: 7.1
